These measurements were taken from the supplement of paper PMC4466140.

List of SPOT peptide array binding signal intensity values.
# TARGET OF ASSAY: ScHof1
# ASSAY METHOD TEXT: SPOT peptide array binding signal intensity (averaged, normalized) (arbitrary units (background-subtracted, floor 0; scale differs between SH3 domains)); higher = stronger binding of the SH3 domain to the peptide
TEST READOUT: SPOT peptide array binding signal intensity

| BINDER | QUALIFIER | OBSERVED RESULT |
| --- | --- | --- |
| VPVAPPPPPASLGQS | ≤ | 0 |
| QPWTDQFEKLEKEVS | ≤ | 0 |
| TKIRRRPQQPLTDFT | ≤ | 0 |
| YHSRRHPLALGFKYV | = | 16.5 |
| ATNVPVAPPPPPASL | ≤ | 0 |
| IKTRSVPKIPSIESV | = | 16.2 |
| LTRRFPFLFPFDTRM | = | 0.5 |
| DLPLPDLPPEPPTEL | = | 206 |
| KNPRRQLQIPRQQPS | = | 0.75 |
| GAGERPRLVPRPINV | = | 3.25 |
| KRRAPPPVPKKPSSR | = | 0.5 |
